B1: Pistol ribozyme (parent)
chain: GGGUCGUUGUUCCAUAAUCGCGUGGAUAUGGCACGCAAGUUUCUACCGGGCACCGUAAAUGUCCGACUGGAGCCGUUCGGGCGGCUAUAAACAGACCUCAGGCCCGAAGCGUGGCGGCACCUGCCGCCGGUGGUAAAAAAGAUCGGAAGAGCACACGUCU

variants of: B1; test: aptazyme ON/OFF ratio, guanine; higher = stronger switching; co-transcriptional cleavage with and without guanine
Here, each record is paired with measured aptazyme ON/OFF ratio data.
// print number alone

Example cases with answers are listed next.
| variantString | measurementType | number |
| --- | --- | --- |
| U7C U8G G9U U10A U11G C12G C13A | aptazyme ON/OFF ratio | 1.05 |
| U7G U8A C12U | aptazyme ON/OFF ratio | 1.44 |
| U7G U8C G9C U10A U11G C12A C13G | aptazyme ON/OFF ratio | 1.12 |

[ask] Requested field: aptazyme ON/OFF ratio. Item: U7C U8C U10C U11G C12A C13G
[reply] 1.27

[ask] Tell me the measured aptazyme ON/OFF ratio of U7A U8A G9U U10A U11A C12A C13A , please.
[reply] 1.35

[ask] Request the reported aptazyme ON/OFF ratio associated with U7G U8A U10G U11A C12G C13U
[reply] 1.23

[ask] Give the measured aptazyme ON/OFF ratio of U7C U8A G9A U10A U11C C12G C13G .
[reply] 1.35
